B1: TRIM35 (parent)
chain: PTCPVCKDRASPADLRTNHTLNNL

variants of: B1; assay: protein stability index of a GFP-peptide fusion (GPS, HEK-293T) (PSI 1-6); higher = more stable; details: c terminus: a fixed tail appended;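 also: lentivirally expressed fusions sorted by FACS into six bins by GFP to DsRed ratio, PSI derived from sequencing read proportions per bin multiplied by bin number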
Reported metric: protein stability index

Below, each entry is followed by its recorded protein stability index result.
[
  {
    "Mutation annotation": "L24I",
    "protein stability index": 3.5
  },
  {
    "Mutation annotation": "T17A",
    "protein stability index": 2.75
  },
  {
    "Mutation annotation": "R16N",
    "protein stability index": 3.32
  },
  {
    "Mutation annotation": "S11Q",
    "protein stability index": 3.07
  }
]

Now for another entry.
Data request, read-out protein stability index, for `L24F`
3.32
